Test system: 186277-243-T-J2-PDC complex spheroids, viability
Test: Anticancer human tumor 186277-243-T-J2-PDC patient-derived colon adenocarcinoma cell line growth inhibition [RAS]
Settings: second compound 0.00949 µM; first compound 10 µM; stronger effect = lower value
From the text: RAS pathway inhibitors in Combinations in Complex Spheroids A high-throughput screen of multi-cell type tumor spheroids was designed to identify active combinations of RAS pathway inhibitors and targeted small molecules. Complex spheroids include a stromal component modeled by human endothelial cells (HUVEC) and fibroblasts modeled by human mesenchymal stem cells (MSCs). […] Compounds. […] If the clinical Cmax for an agent had not been determined, the highest concentration tested was 10 microM. […]
In plain terms, low viability, T/C, meaning strictly below 3%, gives 1, and everything else gives -1.

QUERY: Identify whether the compound CC(=O)OC12COC1CC(O)C1(C)C(=O)C(O)C3=C(C)C(OC(=O)C(O)C(NC(=O)OC(C)(C)C)c4ccccc4)CC(O)(C(OC(=O)c4ccccc4)C21)C3(C)C (centres undefined) + CCn1c(-c2cccnc2C(C)OC)c2c3cc(ccc31)N1CCOC(CC(NC(=O)C(C(C)C)N(C)C(=O)C3(F)CCN(C(=O)C#CC(C)(C)N(C)C)CC3)C(=O)N3CCCC(N3)C(=O)OCC(C)(C)C2)C1 records viability, T/C below 3%.
RESULT: -1

QUERY: Identify whether the compound CCC(CC)c1cc(NC2CCC(N)C2)n2nccc2n1 (centres undefined) + CCn1c(-c2cccnc2C(C)OC)c2c3cc(ccc31)N1CCOC(CC(NC(=O)C(C(C)C)N(C)C(=O)C3(F)CCN(C(=O)C#CC(C)(C)N(C)C)CC3)C(=O)N3CCCC(N3)C(=O)OCC(C)(C)C2)C1 records viability, T/C below 3%.
RESULT: 1

QUERY: Identify whether the compound CC(Nc1ccc2c(c1)OCCn1cc(N3C(=O)OCC3C(F)F)nc1-2)C(N)=O (centres undefined) + CCn1c(-c2cc(N3CCN(C)CC3)cnc2C(C)OC)c2c3cc(ccc31)-c1csc(n1)CC(NC(=O)C1CC1C)C(=O)N1CCCC(N1)C(=O)OCC(C)(C)C2 records viability, T/C below 3%.
RESULT: 1

QUERY: Identify whether the compound CC(Nc1ccc2c(c1)OCCn1cc(N3C(=O)OCC3C(F)F)nc1-2)C(N)=O (centres undefined) + CCn1c(-c2cccnc2C(C)OC)c2c3cc(ccc31)N1CCOC(CC(NC(=O)C(C(C)C)N(C)C(=O)C3(F)CCN(C(=O)C#CC(C)(C)N(C)C)CC3)C(=O)N3CCCC(N3)C(=O)OCC(C)(C)C2)C1 records viability, T/C below 3%.
RESULT: -1

QUERY: Identify whether the compound CC(C)NCC(C(=O)N1CCN(c2ncnc3c2C(C)CC3O)CC1)c1ccc(Cl)cc1 (centres undefined) + CCn1c(-c2cc(N3CCN(C)CC3)cnc2C(C)OC)c2c3cc(ccc31)-c1csc(n1)CC(NC(=O)C1CC1C)C(=O)N1CCCC(N1)C(=O)OCC(C)(C)C2 records viability, T/C below 3%.
RESULT: 1

QUERY: Identify whether the compound C[C@@H](NC(=O)c1ncnc(N)c1Cl)c1ncc(C(=O)Nc2cc(C(F)(F)F)c(Cl)cn2)s1 + CCn1c(-c2cccnc2C(C)OC)c2c3cc(ccc31)N1CCOC(CC(NC(=O)C(C(C)C)N(C)C(=O)C3(F)CCN(C(=O)C#CC(C)(C)N(C)C)CC3)C(=O)N3CCCC(N3)C(=O)OCC(C)(C)C2)C1 records viability, T/C below 3%.
RESULT: -1

QUERY: Identify whether the compound NC1c2ccccc2OC12CCN(c1cnc3c(N4CCCc5ncccc54)n[nH]c3n1)CC2 (centres undefined) + CCn1c(-c2cccnc2C(C)OC)c2c3cc(ccc31)N1CCOC(CC(NC(=O)C(C(C)C)N(C)C(=O)C3(F)CCN(C(=O)C#CC(C)(C)N(C)C)CC3)C(=O)N3CCCC(N3)C(=O)OCC(C)(C)C2)C1 records viability, T/C below 3%.
RESULT: -1

QUERY: Identify whether the compound Cc1nc(N2CCC3(CC2)COC(C)C3N)c(CO)nc1Sc1ccnc(N)c1Cl (centres undefined) + CCn1c(-c2cc(N3CCN(C)CC3)cnc2C(C)OC)c2c3cc(ccc31)-c1csc(n1)CC(NC(=O)C1CC1C)C(=O)N1CCCC(N1)C(=O)OCC(C)(C)C2 records viability, T/C below 3%.
RESULT: 1

QUERY: Identify whether the compound CC(C)NCC(C(=O)N1CCN(c2ncnc3c2C(C)CC3O)CC1)c1ccc(Cl)cc1 (centres undefined) + CCn1c(-c2cccnc2C(C)OC)c2c3cc(ccc31)N1CCOC(CC(NC(=O)C(C(C)C)N(C)C(=O)C3(F)CCN(C(=O)C#CC(C)(C)N(C)C)CC3)C(=O)N3CCCC(N3)C(=O)OCC(C)(C)C2)C1 records viability, T/C below 3%.
RESULT: -1

###

System: 186277-243-T-J2-PDC complex spheroids, viability
Assay: Anticancer human tumor 186277-243-T-J2-PDC cell line growth inhibition [RAS];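 further: spheroids exposed to compounds for 7 days before viability read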
Settings: curve of first compound; second compound 0.03 µM
pIC50: −log10 of the molar value.
Experimental readout: pIC50

QUERY: Read the entry C=CC(=O)N1CCN(c2nc(OCC3CCCN3C)nc3c(F)c(-c4nc(N)cc(C)c4C(F)(F)F)c(Cl)cc23)C(C)C1 (centres undefined) + CCn1c(-c2cccnc2C(C)OC)c2c3cc(ccc31)N1CCOC(CC(NC(=O)C(C(C)C)N(C)C(=O)C3(F)CCN(C(=O)C#CC(C)(C)N(C)C)CC3)C(=O)N3CCCC(N3)C(=O)OCC(C)(C)C2)C1 and write its reported pIC50.
RESULT: < 6.00

QUERY: Read the entry Cc1nc(N2CCC3(CC2)COC(C)C3N)c(CO)nc1Sc1ccnc(N)c1Cl (centres undefined) + CCn1c(-c2cc(N3CCN(C)CC3)cnc2C(C)OC)c2c3cc(ccc31)-c1csc(n1)CC(NC(=O)C1CC1C)C(=O)N1CCCC(N1)C(=O)OCC(C)(C)C2 and write its reported pIC50.
RESULT: > 7.50

QUERY: Read the entry CCC(CC)c1cc(NC2CCC(N)C2)n2nccc2n1 (centres undefined) + CCn1c(-c2cc(N3CCN(C)CC3)cnc2C(C)OC)c2c3cc(ccc31)-c1csc(n1)CC(NC(=O)C1CC1C)C(=O)N1CCCC(N1)C(=O)OCC(C)(C)C2 and write its reported pIC50.
RESULT: > 7.50

QUERY: Read the entry CC(C)NCC(C(=O)N1CCN(c2ncnc3c2C(C)CC3O)CC1)c1ccc(Cl)cc1 (centres undefined) + CCn1c(-c2cc(N3CCN(C)CC3)cnc2C(C)OC)c2c3cc(ccc31)-c1csc(n1)CC(NC(=O)C1CC1C)C(=O)N1CCCC(N1)C(=O)OCC(C)(C)C2 and write its reported pIC50.
RESULT: > 7.50

###

Test system: 186277-243-T-J2-PDC complex spheroids, viability
Experiment: Anticancer human tumor 186277-243-T-J2-PDC cell line growth inhibition [RAS];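 further: spheroids exposed to compounds for 7 days before viability read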
Conditions: second compound 0.000949 µM; first compound 0.1 µM; stronger effect = lower value
Experimental readout: viability, T/C

QUERY: Provide viability, T/C, recorded with 186277-243-T-J2-PDC complex spheroids, viability, of CCN1CCN(Cc2ccc(Nc3ncc(F)c(-c4cc(F)c5nc(C)n(C(C)C)c5c4)n3)nc2)CC1 + CCn1c(-c2cc(N3CCN(C)CC3)cnc2C(C)OC)c2c3cc(ccc31)-c1csc(n1)CC(NC(=O)C1CC1C)C(=O)N1CCCC(N1)C(=O)OCC(C)(C)C2
RESULT: 149%

QUERY: Provide viability, T/C, recorded with 186277-243-T-J2-PDC complex spheroids, viability, of C=CC(=O)N1CCN(c2nc(OCC3CCCN3C)nc3c(F)c(-c4nc(N)cc(C)c4C(F)(F)F)c(Cl)cc23)C(C)C1 (centres undefined) + CCn1c(-c2cc(N3CCN(C)CC3)cnc2C(C)OC)c2c3cc(ccc31)-c1csc(n1)CC(NC(=O)C1CC1C)C(=O)N1CCCC(N1)C(=O)OCC(C)(C)C2
RESULT: 82%

QUERY: Provide viability, T/C, recorded with 186277-243-T-J2-PDC complex spheroids, viability, of CC(Nc1ccc2c(c1)OCCn1cc(N3C(=O)OCC3C(F)F)nc1-2)C(N)=O (centres undefined) + CCn1c(-c2cccnc2C(C)OC)c2c3cc(ccc31)N1CCOC(CC(NC(=O)C(C(C)C)N(C)C(=O)C3(F)CCN(C(=O)C#CC(C)(C)N(C)C)CC3)C(=O)N3CCCC(N3)C(=O)OCC(C)(C)C2)C1
RESULT: 97.7%

QUERY: Provide viability, T/C, recorded with 186277-243-T-J2-PDC complex spheroids, viability, of CCC(CC)c1cc(NC2CCC(N)C2)n2nccc2n1 (centres undefined) + CCn1c(-c2cccnc2C(C)OC)c2c3cc(ccc31)N1CCOC(CC(NC(=O)C(C(C)C)N(C)C(=O)C3(F)CCN(C(=O)C#CC(C)(C)N(C)C)CC3)C(=O)N3CCCC(N3)C(=O)OCC(C)(C)C2)C1
RESULT: 91.8%
